Test system: 786-0 renal
Experiment: NCI-60 one-dose screen, 48 h
Settings: 10 µM unless noted
Procedure: Cells are grown in 96 well plates and exposed to the test compound for 48 hours. Compounds are tested at a single concentration, which is 10^-5 M for most compounds. The reported endpoint is percent growth (GI% or GIPRCNT), where numbers from 0 - 100% represent growth inhibition, and numbers from -100% - 0 represent cell death. For example, a value of 40 represents 60% growth inhibition. A value of 0 means no net growth occurred over the course of the experiment. […]
About 83,000 compounds went through this panel and 20% of them were active in at least one assay; those are over-represented in the sample as a whole. The source made the active and inactive calls. How the source made its calls: active means growth percent below 10; inactive means the rest.
Your response should consist of one outcome taken from active, inactive

For this compound, state the assay outcome: CC(=C(c1ccc(OCCN(C)C)cc1)c1ccc(OCCN(C)C)cc1)c1ccc(Cl)cc1
active

Test call for this compound, please: O=C(CCCCCCN1CC(=O)N2[C@@H](c3ccc(Cl)s3)c3[nH]c4ccccc4c3C[C@H]2C1=O)NO
inactive

Short answer needed: outcome of this test for CC(=O)Nc1cc(N2CCOCC2)c2nc(NC(=O)c3[nH]c(C)c(Cl)c3Cl)sc2c1 ?
inactive

Assay outcome for CCOC(=O)c1c(NC(=O)c2cccc(C(F)(F)F)c2)sc2c1CCC(=O)C2 : what was it?
inactive

Which outcome did this test record for the compound CCc1cc(OC(=O)N2CCC(N3CCCCC3)CC2)ccc1Nc1cc(-c2ccc(-n3cccn3)cc2)[nH]n1 ?
inactive

Query: recorded result category for Cc1ccc(OCc2occc2C(=O)N2CCOCC2)cc1 in this test
inactive

Returns: the outcome recorded for COc1ccc2[nH]cc(/C=N/Nc3ccnc4cc(Cl)ccc34)c2c1 in this assay.
active

Which outcome did this test record for the compound C#C[C@]1(O)CC[C@H]2[C@@H]3CC=C4c5sc(Nc6ncccc6C)nc5CC[C@]4(C)[C@H]3CC[C@@]21C ?
active

State the result this test recorded for Cc1ccc(S(=O)(=O)c2nc(-c3ccc(F)cc3)oc2S(C)(=O)=O)cc1 .
inactive

----------
tested on: ACHN renal; assay: NCI-60 one-dose screen, 48 h; conditions: 10 µM unless noted
Compounds without any hit were thinned out: in the full panel of roughly 83,000, 20% have a hit. Calls of active or inactive are those of the source. How the source made its calls: active means growth percent below 10; inactive means the rest.
# output must be one of 1 (yes) for active, 0 (no) for inactive

How was CCCCCCNC(=O)Oc1ccc(/C(=C(/C)c2ccc(OC)cc2)c2ccc(OCCN3CCCCCC3)cc2)cc1 classified in this test?
0 (no)

Recorded test outcome, item Cc1cc(NS(=O)(=O)c2ccc(NC(=O)CSc3nc4ccccc4c(=O)n3-c3ccccc3)cc2)no1
0 (no)

Any idea what this test logged for CN1CCN(c2ccc(Nc3nc(NCCCNS(=O)(=O)c4cccc5ccccc45)c4sccc4n3)cc2)CC1 ?
1 (yes)

Please indicate how the test categorized C#C[C@]1(O)CC[C@H]2[C@@H]3CC=C4c5sc(Nc6ccc(C)cn6)nc5CC[C@]4(C)[C@H]3CC[C@@]21C .
0 (no)

Field: outcome | Entry: Cc1csc(/N=C(N)/N=C(\N)c2cccc(C#N)c2)n1
0 (no)

For COc1ccc(/C=N\NC(=O)c2cnn(CC(O)c3ccccc3)c2N)cc1OCc1ccc(Cl)cc1 (centres undefined) , which call appears in the assay record?
0 (no)

In this assay, the call recorded for COC(=O)c1cccc(NC2=CC(=O)C(C)=C(C)C2=O)c1 was what?
0 (no)

Answer briefly: the call reported for COc1ccc([C@@H]2C(=O)N(c3cc(OC)c(OC)c(OC)c3)[C@H]2c2ccc(OC)c(O)c2)cc1 in this assay.
0 (no)

Could you kindly confirm the outcome this assay logged for CC(C)(C)Nc1nc2c(OCCc3ccccc3)cccn2c1-c1ccc([N+](=O)[O-])cc1 ?
0 (no)

----------
Assignment: determine reported growth for the given compounds.
tested on: KM12 colon; assay: NCI-60 one-dose screen, 48 h (100 = growth as untreated, 0 = no growth, -100 = all killed); settings: 10 µM unless noted
Compounds without any hit were thinned out: in the full panel of roughly 83,000, 20% have a hit.
Return type: number; implicit unit %.

Requested read-out: growth. Entry: COc1cc(/C=C2/C(=O)Nc3ccc(Cl)cc32)ccc1OCc1ccc(Cl)cc1
100

Report growth for C/C(=N/N)c1nnn(-c2ccc(Br)cc2)c1C please.
99.4

Entry Cc1ccc(-c2cc3nc(C(Cl)Cl)nc(-c4ccc(S(=O)(=O)N(C)C)cc4)n3n2)cc1 has what growth?
86.5

Tell me the measured growth of N#C/C(=N\Nc1ccc(F)cc1)C(=O)Nc1cc(-c2ccccc2)nn1-c1ccccc1 , please.
9.32

Recorded growth for COc1ccc(C(C)=C(c2ccc(OCCN3CCCCCC3)cc2)c2ccc(OCCN3CCCCCC3)cc2)cc1 , please?
-24.8

I have this compound here, O=C(Nc1cccc(C(F)(F)F)c1)N1CCN(c2cc(-c3cn(-c4ccccc4)nc3-c3cccc(O)c3)ccn2)CC1 , and I need its recorded growth.
32

Quick one: growth for CC1=C(C)C(=O)C(Nc2ccc(C)cc2)=C(Br)C1=O ?
104

Consider the compound COc1ccc(-c2cnc(NC(=O)CCCCCCNC(=O)C(O)(O)C(F)(F)F)s2)cc1 and give its measured growth.
-47.8

Name the reported growth value associated with the compound CC(C)=CCC[C@](C)(O)[C@H]1CC[C@]2(C)[C@@H]1CC[C@@H]1[C@@]3(C)CC[C@H](N)C(C)(C)[C@@H]3CC[C@]12C
48.9

----------
system: HCT-116 colon; test: NCI-60 one-dose screen, 48 h (100 = growth as untreated, 0 = no growth, -100 = all killed); details: 10 µM unless noted
Compounds without any hit were thinned out: in the full panel of roughly 83,000, 20% have a hit.
Provide the recorded growth for the entries that follow.
Express it in %; write the number only.

Looking for the measured growth of Cc1ccc(C)c(NC2=C(Cl)C(=O)c3nc(C)ccc3C2=O)c1 , can you help?
-74.1

Name the reported growth value associated with the compound O=C1Nc2ccccc2/C1=C/c1ccc(OCC(=O)c2ccccc2)cc1
94.4

For N#Cc1cccc(-c2cc(-c3ccc4c(c3)OCCO4)[nH]n2)c1 , what is its reported growth?
23.1

For the compound CC1CC(=O)C2=C(C1)Nc1ccc(Br)cc1CC2c1c[nH]c2ccc(Br)cc12 (stereo not given) , what growth is on record?
24.2

Query: growth; subject: CC(=O)c1c([Si](C)(C)C)c2cc(C#N)ccn2c1C(=O)c1ccc(Br)cc1
56

----------
tested on: HT29 colon; test: NCI-60 one-dose screen, 48 h (100 = growth as untreated, 0 = no growth, -100 = all killed); conditions: 10 µM unless noted
Compounds without any hit were thinned out: in the full panel of roughly 83,000, 20% have a hit.
# strict inequality: growth < 70% yields Yes, everything else yields No

Decide: growth of Oc1ccc(-c2nc3ccc(/C(=N\N=C\c4ccc(Cl)cc4)c4ccccc4)cc3[nH]2)cc1 strictly below 70%?
No

Input Cc1ccc(S(=O)(=O)NCCCNc2nccc(-c3[nH]c(-c4ccccc4)nc3-c3ccc(F)c(O)c3)n2)cc1 ; condition: growth strictly below 70%. Does it hold?
No

Does CCOC(=O)C1=C(C)NC(C)=C(C(=O)OCc2ccccc2)C1c1cccc(C#N)c1 (stereo not drawn) have growth strictly under 70%?
Yes

Bench note: check whether O=C(CCCCCCN1CC(=O)N2[C@@H](c3cccs3)c3[nH]c4ccccc4c3C[C@H]2C1=O)NO shows growth below 70%
No

Lab note: confirm whether the reported growth for this compound is below 70%, equality not counting. compound: Cc1[nH]c(C(=O)Nc2ccc(S(=O)(=O)N3CCCCC3)cc2OCCOCCOCCOCCOCCOCCOCCOCCOCCOc2cc(S(=O)(=O)N3CCCCC3)ccc2NC(=O)c2[nH]c(C)c3c2CCCCC3=O)c2c1C(=O)CCCC2
Yes

Here's an entry: CCOC(=O)c1cnc2c(-c3ccc(Cl)c(Cl)c3)cnn2c1 . Is its growth below 70%?
Yes

Hi there! Is growth for Clc1ccc2[nH]cc(-c3nn4cc(-c5cccnc5)nc4s3)c2c1 below 70%, do you know?
No

----------
Tested on: MCF7 breast
Experiment: NCI-60 one-dose screen, 48 h (100 = growth as untreated, 0 = no growth, -100 = all killed)
Settings: 10 µM unless noted
Description: Growth inhibition of the MCF7 human tumor cell line is measured as a screen for anti-cancer activity. Cells are grown in 96 well plates and exposed to the test compound for 48 hours. Compounds are tested at a single concentration, which is 10^-5 M for most compounds. The reported endpoint is percent growth (GI% or GIPRCNT), where numbers from 0 - 100% represent growth inhibition, and numbers from -100% - 0 represent cell death. For example, a value of 40 represents 60% growth inhibition. […]
The panel holds about 83,000 compounds, 20% with a hit somewhere; the sample as a whole holds those more often.
Quantity name: growth (%)
Numbers only here, please. The scale is %.

Can you look up the measured growth of C/C(=N/N)c1nnn(-c2ccc(Br)cc2)c1C for me?
77.6

So what's the measured growth for this one? C=C(C)[C@@H]1CC[C@]2(COP(=O)(OCC)OCC)CC[C@]3(C)[C@H](CC[C@@H]4[C@@]5(C)CC[C@H](OP(=O)(OCC)OCC)C(C)(C)[C@@H]5CC[C@]43C)[C@@H]12
0.255

Which measured growth value corresponds to CCCCOc1ccc(S(=O)(=O)N2CCN(c3nc(C)cc(N4CCOCC4)n3)CC2)cc1 ?
76.9

Quick check: growth of CNCCN(C)c1ccc(Nc2cc(NC3CC3)n3ncc(C#N)c3n2)cc1NC(C)=O ?
-0.902

Give the measured growth of CN(C)S(=O)(=O)c1ccc(-c2nc(C(Cl)Cl)nc3cc(-c4ccc(F)cc4)nn23)cc1 .
15

Which growth value is on record for Cc1ccc(NC(=O)Nc2nc3ccc([N+](=O)[O-])cc3s2)cc1 ?
2.35

# get_value(readout='growth', item= O=C(CSc1nc2ccccc2c(=O)n1-c1ccc(Cl)cc1)N/N=C/c1ccc(Oc2ccc(Cl)cc2)cc1 )
15.5

May I ask what growth has been recorded for N#CC1=C2NCCCNc3oc(nc3C#N)Cc3ccccc3CC(=N1)O2 ?
33.8

What measured growth goes with Cc1ccc(CSC2=C(Cl)CN(c3ccc(Cl)cc3)C2=O)cc1 ?
79.1

Record request: growth value, item CC[C@]12CC(C(=O)OC)=C3Nc4ccccc4[C@@]34CCN(C14)[C@@H]1c3cc4c(cc3O[C@@H]1[C@H]2O)NC1=C(C(=O)OC)C[C@@]2(CC)C3N(CC[C@@]143)C[C@H]1O[C@H]12 (stereo partly drawn)
4.36

# query: growth of entry CN(C)c1cccc2c(S(=O)(=O)Nc3cccc(-c4csc(NC(=O)CCCCCN5CCN(CCO)CC5)n4)c3)cccc12
35.8

Looking for the measured growth of Cc1ccc(NC(=O)/C=C/c2ccc(OCCCOc3ccc4c(C)cc(=O)oc4c3)cc2)cc1 , can you help?
73.4

Name the recorded growth for Oc1ccc(-c2nc3ccc(/C(=N\N=C\c4ccc(Cl)cc4)c4ccccc4)cc3[nH]2)cc1 .
53.1

Would you mind telling me what growth value was observed for Cn1c(SCC(=O)c2ccco2)nc2ccccc2c1=O ?
18.3

Value lookup for growth; key = CCS(=O)(=O)Nc1ccc(C(=O)CC2(O)C(=O)Nc3ccccc32)cc1 (stereo not drawn)
92.3

Using the record for O=[N+]([O-])c1ccc(NC(=S)NNC(=S)Nc2ccc(F)cc2)cc1 , report its growth.
82

Any idea what growth was measured for NS(=O)(=O)c1ccc(Nc2nc(N/N=C/C=C/c3ccccc3)nc(Nc3ccccc3)n2)cc1 ?
16

Field request: growth | item: COc1ccc2[nH]cc(/C=N/Nc3ccnc4cc(Cl)ccc34)c2c1
-69.1

Values compiled from PubChem BioAssay (NCI).
